Molecular target: GPR84 (Homo sapiens)
Construct: expressed in transfected cells
Assay: GPR84 [35S]GTPγS binding assay, HEPES buffer
Format: biochemical
Settings: 3,3′ di indolylmethane at EC80, membranes from stable cell line over expressing GPR84
Listing of recorded IC50 by entry.

1) O=c1nc(OCC2COc3ncccc3O2)cc2n1CCc1cc(C#CC3CC3)ccc1-2 (stereo not drawn)	0.01 to 100 nM
2) CN1CCN(CCCOc2ccc3c(c2)CCn2c-3cc(OCC3COc4ccccc4O3)nc2=O)CC1 (stereo not drawn)	100 to 500 nM
3) O=c1nc(OCC2CCCO2)cc2n1CCc1cc(OCc3ccccc3[N+](=O)[O-])ccc1-2 (stereo not drawn)	0.01 to 100 nM
4) N#Cc1cccc(-c2ccc3c(c2)CCn2c-3cc(OCC3CCCO3)nc2=O)c1 (stereo not drawn)	100 to 500 nM
5) N#Cc1ccccc1-c1ccc2c(c1)CCn1c-2cc(OCC2CCCO2)nc1=O (stereo not drawn)	500 to 1000 nM

Prompt: Need IC50, item COc1ccccc1OCCOc1ccc2c(c1)CCn1c-2cc(OCC2CCCO2)nc1=O (stereo not drawn)
Response: 0.01 to 100 nM

Prompt: Need IC50, item N#CCCOCC#Cc1ccc2c(c1)CCn1c-2cc(OCC2COc3ncccc3O2)nc1=O (stereo not drawn)
Response: 0.01 to 100 nM

Prompt: Need IC50, item NC(=O)NCC#Cc1ccc2c(c1)CCn1c-2cc(OCC2COc3ncccc3O2)nc1=O (stereo not drawn)
Response: 0.01 to 100 nM

----------
Listing of recorded IC50 by entry.
Molecular target: GPR84 (Homo sapiens, UniProt Q9NQS5)
Construct: expressed in transfected cells
Sequence (Q9NQS5 whole entry): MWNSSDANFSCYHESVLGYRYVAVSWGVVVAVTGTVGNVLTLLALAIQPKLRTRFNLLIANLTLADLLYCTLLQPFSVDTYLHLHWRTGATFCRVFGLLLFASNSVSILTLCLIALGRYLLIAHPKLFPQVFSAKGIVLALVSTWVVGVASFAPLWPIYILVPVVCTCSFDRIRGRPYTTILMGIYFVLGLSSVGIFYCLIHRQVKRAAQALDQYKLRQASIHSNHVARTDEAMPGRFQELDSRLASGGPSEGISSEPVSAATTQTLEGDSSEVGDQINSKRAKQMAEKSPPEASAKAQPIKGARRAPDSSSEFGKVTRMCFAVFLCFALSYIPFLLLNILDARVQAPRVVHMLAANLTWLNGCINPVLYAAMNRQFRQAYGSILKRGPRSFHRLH
Test: GPR84 [35S]GTPγS binding assay, HEPES buffer
Assay type: biochemical
Details: 3,3′ di indolylmethane at EC80, membranes from stable cell line over expressing GPR84

1) O=c1nc(OCC2COc3ccccc3O2)cc2n1CCc1cc(OCCCN3CCCCC3)ccc1-2 (stereo not shown)	100 to 500 nM

Let's switch to this compound now.
Prompt: Recall the recorded IC50 for O=c1nc(OCC2COc3ccccc3O2)cc2n1CCc1cc(OCc3nnnn3C3CC3)ccc1-2 (stereo not shown) with GPR84 (Homo sapiens, UniProt Q9NQS5) and state it.
Response: 0.01 to 100 nM

----------
Listing of recorded pIC50 by entry.
Biological target: GPR84 (Homo sapiens, UniProt Q9NQS5)
Construct: expressed in transfected cells
Assay: GPR84 [35S]GTPγS binding assay, HEPES buffer
Format: biochemical
Details: 3,3′ di indolylmethane at EC80, membranes from stable cell line over expressing GPR84
pIC50: −log10 of the molar value.

Check out these entries, answers already filled in.
1. O=c1nc(OCC2CCCO2)cc2n1CCc1cc(OCCOc3ccccc3Cl)ccc1-2 (stereo not shown)	7.00 to 11.00
2. CCc1nc(COc2ccc3c(c2)CCn2c-3cc(OCC3COc4ncccc4O3)nc2=O)no1 (stereo not shown)	7.00 to 11.00
3. CC(C)(C)c1nc(COc2ccc3c(c2)CCn2c-3cc(OCC3COc4ncccc4O3)nc2=O)no1 (stereo not shown)	7.00 to 11.00
4. O=c1nc(OCC2COc3ncccc3O2)cc2n1CCc1cc(-c3ccncc3)ccc1-2 (stereo not shown)	7.00 to 11.00
5. O=c1nc(OCC2COc3ccccc3O2)cc2n1CCc1cc(OCc3ncco3)ccc1-2 (stereo not shown)	6.30 to 7.00
6. O=c1nc(OCC2CCCO2)cc2n1CCc1cc(-c3ccccc3)ccc1-2 (stereo not shown)	6.30 to 7.00

Prompt: Need pIC50, item O=C(NC1CCOCC1)c1ccc2c(c1)CCn1c-2cc(OCC2COc3ncccc3O2)nc1=O (stereo not shown)
Response: 6.30 to 7.00

Prompt: Need pIC50, item N#Cc1ccccc1COc1ccc2c(c1)CCn1c-2cc(OCC2CCCO2)nc1=O (stereo not shown)
Response: 7.00 to 11.00

Prompt: Need pIC50, item CCCCOc1ccc2c(c1)CCn1c-2cc(OCC2CCCO2)nc1=O (stereo not shown)
Response: 6.30 to 7.00

Prompt: Need pIC50, item N#Cc1ccc2c(c1)CCn1c-2cc(OCC2COc3ncccc3O2)nc1=O (stereo not shown)
Response: 6.30 to 7.00
